Entry source: ChEMBL document CHEMBL1137779

biological target: UniProt:P34972; test: Displacement of [3H]CP-55940 from human recombinant CB2R expressed in HEK293 cells
Sequence (P34972 whole entry): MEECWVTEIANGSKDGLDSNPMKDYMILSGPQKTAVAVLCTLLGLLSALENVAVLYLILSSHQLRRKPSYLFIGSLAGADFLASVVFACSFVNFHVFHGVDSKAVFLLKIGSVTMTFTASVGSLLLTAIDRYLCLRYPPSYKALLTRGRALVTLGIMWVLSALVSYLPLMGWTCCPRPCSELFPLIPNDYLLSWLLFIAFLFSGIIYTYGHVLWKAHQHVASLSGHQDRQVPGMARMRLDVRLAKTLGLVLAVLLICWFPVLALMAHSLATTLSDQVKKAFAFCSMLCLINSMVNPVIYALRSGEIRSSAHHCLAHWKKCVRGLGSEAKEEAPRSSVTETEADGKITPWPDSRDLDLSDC
Measure name: IC50 (nM)

structure_notation=CCc1c(C2=NC3(CCCCC3)C(=O)N2)nn(-c2ccc(Cl)cc2Cl)c1-c1ccc(Cl)cc1 reported=497
structure_notation=CCCN1C(c2nn(-c3ccc(Cl)cc3Cl)c(-c3ccc(Cl)cc3)c2C)=NC(=O)C1(C)C reported=5510
structure_notation=CCc1c(C2=NC(C)(C)C(=O)N2C)nn(-c2ccc(Cl)cc2Cl)c1-c1ccc(Cl)cc1 reported=4330
structure_notation=Cc1c(C2=NC(=S)C(C)(C)N2C)nn(-c2ccc(Cl)cc2Cl)c1-c1ccc(Cl)cc1 reported=901
structure_notation=Cc1c(C2=NC(=O)C(C)(C)N2C2CC2)nn(-c2ccc(Cl)cc2Cl)c1-c1ccc(Cl)cc1 reported=1950

I = Cc1c(C2=NC(=O)C(C)(C)N2C)nn(-c2ccc(Cl)cc2Cl)c1-c1ccc(Cl)cc1
II = CCc1c(C2=NC(=O)C(C)(C)N2C)nn(-c2ccc(Cl)cc2Cl)c1-c1ccc(Br)cc1
III = CCCCN1C(c2nn(-c3ccc(Cl)cc3Cl)c(-c3ccc(Cl)cc3)c2C)=NC(=O)C1(C)C
IV = Cc1c(C2=NC(=O)C(C)(C)N2C)nn(-c2ccc(Cl)cc2Cl)c1-c1ccc(Br)cc1
In this exercise, place the 4 molecules in ascending sequence of their recorded IC50. Put the labels in the order asked and list them.
I, II, IV, III

* * *

molecular target: Cannabinoid receptor 1 (Homo sapiens, UniProt P21554); assay: biochemical
Sequence (P21554 whole entry): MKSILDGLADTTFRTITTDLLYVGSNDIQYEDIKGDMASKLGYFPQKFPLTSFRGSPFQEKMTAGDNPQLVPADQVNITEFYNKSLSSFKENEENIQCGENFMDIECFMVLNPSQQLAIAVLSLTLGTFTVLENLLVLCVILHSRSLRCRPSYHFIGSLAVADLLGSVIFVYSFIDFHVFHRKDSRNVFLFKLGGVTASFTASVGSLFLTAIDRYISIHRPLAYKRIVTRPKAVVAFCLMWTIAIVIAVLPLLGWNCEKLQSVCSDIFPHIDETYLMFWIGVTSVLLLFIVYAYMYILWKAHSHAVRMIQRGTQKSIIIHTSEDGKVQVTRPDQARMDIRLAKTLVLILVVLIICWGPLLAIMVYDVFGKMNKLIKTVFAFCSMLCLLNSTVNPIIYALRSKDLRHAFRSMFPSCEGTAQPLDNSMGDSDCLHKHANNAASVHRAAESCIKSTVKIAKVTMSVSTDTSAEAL
Description: Displacement of [3H]CP-55940 from human recombinant CB1R expressed in HEK293 cells
Measure name: IC50 (nM)

structure_notation=Cc1c(C2=NC(=O)C(C)(C)N2Cc2ccccc2)nn(-c2ccc(Cl)cc2Cl)c1-c1ccc(Cl)cc1 measure_name=IC50 reported=197

I = CCN1C(c2nn(-c3ccc(Cl)cc3Cl)c(-c3ccc(Cl)cc3)c2C)=NC(=O)C1(C)C
II = Cc1c(C2=NC(=O)C(C)(C)N2C)nn(-c2ccc(Cl)cc2Cl)c1-c1ccc(Br)cc1
III = CCc1c(C2=NC3(CCCCC3)C(=O)N2)nn(-c2ccc(Cl)cc2Cl)c1-c1ccc(Cl)cc1
IV = CCCCN1C(c2nn(-c3ccc(Cl)cc3Cl)c(-c3ccc(Cl)cc3)c2C)=NC(=O)C1(C)C
In this exercise, place the 4 compounds in ascending sequence of their recorded IC50. Put the labels in the order asked and list them.
III, II, I, IV

P = Cc1c(C2=NC(=S)C(C)(C)N2C)nn(-c2ccc(Cl)cc2Cl)c1-c1ccc(Cl)cc1
Q = CN1C(c2nn(-c3ccc(Cl)cc3Cl)c(-c3ccc(Cl)cc3)c2Br)=NC(=O)C1(C)C
Between P and Q , whose recorded IC50 is greater? // output: label of the selected item
Q

P = C=CCN1C(c2nn(-c3ccc(Cl)cc3Cl)c(-c3ccc(Cl)cc3)c2C)=NC(=O)C1(C)C
Q = Cc1c(C2=NC(=O)C(C)(C)N2C)nn(-c2ccc(Cl)cc2Cl)c1-c1ccc(C(F)(F)F)cc1
Between P and Q , whose recorded IC50 is greater? // output: label of the selected item
P
(P: 249 nM, Q: 15.9 nM)

P = Cc1c(C2=NC(C)(C)C(=O)N2C)nn(-c2ccc(Cl)cc2Cl)c1-c1ccc(Cl)cc1
Q = CCc1c(C2=NC3(CCCC3)C(=O)N2)nn(-c2ccc(Cl)cc2Cl)c1-c1ccc(Cl)cc1
R = Cc1c(C2=NC(C)(C)C(=O)N2)nn(-c2ccc(Cl)cc2Cl)c1-c1ccc(Cl)cc1
S = CCc1c(C2=NC3(CCC3)C(=O)N2)nn(-c2ccc(Cl)cc2Cl)c1-c1ccc(Cl)cc1
Sort these compounds on IC50 so the largest reading comes first. Put the labels in the order asked and list them.
R, P, S, Q
(R: 53.4 nM, P: 33.6 nM, S: 22.8 nM, Q: 14.6 nM)
